Some molecules, each annotated with its measured pKi.
- Tested On: hNOX1 (Homo sapiens (Human))
- Sequence (Q9Y5S8 whole entry): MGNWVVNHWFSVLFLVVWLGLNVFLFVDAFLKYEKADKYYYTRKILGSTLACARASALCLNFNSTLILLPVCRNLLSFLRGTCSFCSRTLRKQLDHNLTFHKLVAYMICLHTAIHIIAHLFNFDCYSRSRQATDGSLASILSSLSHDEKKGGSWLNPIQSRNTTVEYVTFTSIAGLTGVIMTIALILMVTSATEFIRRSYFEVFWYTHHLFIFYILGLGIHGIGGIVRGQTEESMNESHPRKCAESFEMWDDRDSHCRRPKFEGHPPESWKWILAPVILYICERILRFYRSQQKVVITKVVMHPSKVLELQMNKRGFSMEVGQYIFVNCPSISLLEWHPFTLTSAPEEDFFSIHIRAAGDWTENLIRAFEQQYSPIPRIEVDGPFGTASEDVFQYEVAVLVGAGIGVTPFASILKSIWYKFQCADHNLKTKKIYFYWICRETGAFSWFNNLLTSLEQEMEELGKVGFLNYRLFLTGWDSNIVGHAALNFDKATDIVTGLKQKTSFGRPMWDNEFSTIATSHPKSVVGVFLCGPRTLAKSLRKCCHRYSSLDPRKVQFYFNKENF
- Sequence (P13498 whole entry partner): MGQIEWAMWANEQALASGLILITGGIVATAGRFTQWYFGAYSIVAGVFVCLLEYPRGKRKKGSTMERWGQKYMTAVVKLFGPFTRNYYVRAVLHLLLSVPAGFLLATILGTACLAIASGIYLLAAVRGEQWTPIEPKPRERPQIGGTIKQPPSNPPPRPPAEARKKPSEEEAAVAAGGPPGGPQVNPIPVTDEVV
- Protocol Notes: ROS production measurement on hNOX1 membranes (Amplex Red fluorescence assay, assay 1)
- Particulars: assay 1: membranes from CHO cells overexpressing hNox1, Amplex Red/HRP fluorescence, NADPH 30 μM; non linear regression (GraphPad Prism); read-out: Nox1 inhibitory constant Ki
pKi: −log10 of the molar value.
Reported Endpoint: pKi

In [3]: df
Out[3]:
                                   molecule  recorded_measurement
0  C[C@H](Oc1ncc(C(=O)Nc2nnc(-c3ccncc3)s2)cc1NCc1cn(C)cn1)c1ccccc1 [(66)]                  7.18
1  COc1cc(C(=O)Nc2nnc(-c3ccncc3)s2)ccc1O[C@@H]1CCc2ccccc21 [(80)]                  7.57
2  Cc1nc(OCc2ccccc2)ccc1C(=O)Nc1nnc(-c2ccncc2)s1 [(45)]                  7.11
3  COc1cc(C(=O)Nc2nnc(-c3ccncc3)s2)ccc1O[C@@H](C)Cc1ccccc1 [(116)]                  7.34
4  CN1CCN(c2cc(C(=O)Nc3nnc(-c4ccncc4)s3)cnc2OCc2ccccc2)CC1 [Example 24]                  7.21
5  COc1cc(C(=O)Nc2nnc(-c3ccncc3)s2)ccc1O[C@@H](CCN1CCCC1)c1ccccc1 [Example 9]                  7.54
6  COc1cc(C(=O)Nc2nnc(-c3ccncc3)s2)ccc1OCc1cscn1 [(83)]                  7.10
7  C[C@H](COc1ccc(C(=O)Nc2nnc(-c3ccncc3)s2)cn1)c1ccccc1 [(178)]                  7.07
8  COc1cc(C(=O)Nc2nnc(-c3ccncc3)s2)ccc1CN1Cc2ccccc2C1 [Example 40]                  6.72
